Molecular target: Recombinant Human Siglec-3/CD33 protein (His-CD33) (Homo sapiens (Human))
Sequence (P20138 18-259): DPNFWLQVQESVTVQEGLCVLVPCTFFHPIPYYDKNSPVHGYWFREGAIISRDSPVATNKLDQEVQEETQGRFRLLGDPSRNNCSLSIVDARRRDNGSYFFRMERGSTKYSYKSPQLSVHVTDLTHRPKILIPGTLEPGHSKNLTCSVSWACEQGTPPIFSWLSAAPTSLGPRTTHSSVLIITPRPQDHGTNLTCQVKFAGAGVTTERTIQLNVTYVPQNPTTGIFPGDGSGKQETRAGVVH
Test: Differential scanning fluorimetry (DSF) thermal shift assay
Format: binding
Conditions: difference in thermal melt of CD33 protein (0.5 μM) with 50 μM compound
Parameter: DSF (dTmD). Scope: all listed entries.
Measurement label: DSF (dTmD)

[[record]]
compound = "Cc1cc2cc(C)c1OCc1cccc(c1)[C@H](NC(=O)C1CCCOC1)CCC/C=C/C[C@]1(C(=O)O)C[C@H](O)[C@@H](NC(=O)Cn3cc(C4CCCCC4)nn3)[C@@H](O1)[C@H](O)[C@H](O)CNC2=O (stereo partly drawn)"
value_reported = "4.8 °C"

[[record]]
compound = "COCc1cc2cc(C(=O)NCc3cccc(/C=C/C[C@]4(C(=O)O)C[C@H](O)[C@@H](NC(C)=O)[C@H]([C@H](O)[C@H](O)CNC(=O)c5cc(C)c(O)c(C)c5)O4)c3)ccc2[nH]1"
value_reported = "9.8 °C"

[[record]]
compound = "CC(=O)N[C@H]1[C@H]([C@H](O)[C@H](O)CNC(=O)c2cc(C)c(O)c(C)c2)O[C@@](CCN2CCOC[C@@]23CCN(C(=O)OC(C)(C)C)C3)(C(=O)O)C[C@@]1(C)O"
value_reported = "6.2 °C"


* * *

Biological target: Recombinant Human Siglec-3/CD33 protein (His-CD33) (Homo sapiens (Human))
Assay: Differential scanning fluorimetry (DSF) thermal shift assay
Type: binding
Details: thermal melt shift of 0.5 μM CD33 protein with 50 μM compound
Parameter: DSF (dTmD). Scope: all listed entries.
Measurement label: DSF (dTmD)

[[record]]
compound = "CC(=O)N[C@H]1[C@H]([C@H](O)[C@H](O)CNC(=O)c2ccc(C)c(C)c2)O[C@@](CCN2CCOC[C@@]23CCN(C(=O)OC(C)(C)C)C3)(C(=O)O)C[C@@H]1O"
value_reported = 10.9

[[record]]
compound = "CC(=O)N[C@H]1[C@H]([C@H](O)[C@H](O)CNC(=O)c2cc(C)c(O)c(C)c2)O[C@@](CCN2CCOC[C@@]23CCN(c2cc(C4CC4)ccn2)C3)(C(=O)O)C[C@@H]1O"
value_reported = 12.5

[[record]]
compound = "CC(=O)N[C@H]1[C@H]([C@H](O)[C@H](O)CNC(=O)c2cc(C)c(O)c(C)c2)O[C@@](CCN2CCOC[C@@]23CCN(C(=O)c2ccccc2)C3)(C(=O)O)C[C@@H]1O"
value_reported = 7.4

[[record]]
compound = "CC(=O)N[C@H]1[C@H]([C@H](O)[C@H](O)CNC(=O)c2ccc3[nH]nc(F)c3c2)O[C@@](CCN2CCOC[C@@]23CCN(C(=O)OC(C)(C)C)C3)(C(=O)O)C[C@@H]1O"
value_reported = 11.5

[[record]]
compound = "CC(=O)N[C@H]1[C@H]([C@H](O)[C@H](O)CNC(=O)c2cc(C)c(O)c(C)c2)O[C@@](CCN2CCOC[C@@]23CCN(C(=O)C2CC2)C3)(C(=O)O)C[C@@H]1O"
value_reported = 7.6

[[record]]
compound = "CC(=O)N[C@H]1[C@H]([C@H](O)[C@H](O)CNC(=O)c2cc(C)c(O)c(C)c2)O[C@@](CCN2CCOC[C@@]23CCN(c2ccccn2)C3)(C(=O)O)C[C@@H]1O"
value_reported = 9.6

[[record]]
compound = "CC(=O)N[C@H]1[C@H]([C@H](O)[C@H](O)CNC(=O)c2cc(Br)c(O)c(Br)c2)O[C@@](CCN2CCOC[C@@]23CCN(C(=O)OC(C)(C)C)C3)(C(=O)O)C[C@@H]1O"
value_reported = 15.1

[[record]]
compound = "CC(=O)Nc1ccc(C(=O)NC[C@@H](O)[C@@H](O)[C@@H]2O[C@@](CCN3CCOC[C@@]34CCN(C(=O)OC(C)(C)C)C4)(C(=O)O)C[C@H](O)[C@H]2NC(C)=O)cc1"
value_reported = 6.0

[[record]]
compound = "CC(=O)N[C@H]1[C@H]([C@H](O)[C@H](O)CNC(=O)c2cc(C)[nH]n2)O[C@@](CCN2CCOC[C@@]23CCN(C(=O)OC(C)(C)C)C3)(C(=O)O)C[C@@H]1O"
value_reported = 8.9

[[record]]
compound = "CC(=O)N[C@H]1[C@H]([C@H](O)[C@H](O)CNC(=O)c2cc(C)c3[nH]c(CO)cc3c2)O[C@@](CCN2CCOC[C@@]23CCN(C(=O)OC(C)(C)C)C3)(C(=O)O)C[C@@H]1O"
value_reported = 15.8

[[record]]
compound = "CC(=O)N[C@H]1[C@H]([C@H](O)[C@H](O)CNC(=O)c2cc(C)on2)O[C@@](CCN2CCOC[C@@]23CCN(C(=O)OC(C)(C)C)C3)(C(=O)O)C[C@@H]1O"
value_reported = 4.5

[[record]]
compound = "CC(=O)N[C@H]1[C@H]([C@H](O)[C@H](O)CNC(=O)c2ccc(O)c(NC=O)c2)O[C@@](CCN2CCOC[C@@]23CCN(C(=O)OC(C)(C)C)C3)(C(=O)O)C[C@@H]1O"
value_reported = 7.4

[[record]]
compound = "CC(=O)N[C@H]1[C@H]([C@H](O)[C@H](O)CNC(=O)c2ccc(O)c(C)c2)O[C@@](CCN2CCOC[C@@]23CCN(C(=O)OC(C)(C)C)C3)(C(=O)O)C[C@@H]1O"
value_reported = 12.4

[[record]]
compound = "CC(=O)N[C@H]1[C@H]([C@H](O)[C@H](O)CNC(=O)c2cc(C)c(O)c(C)c2)O[C@@](CCN2CCOCC2(C)CNC(=O)OC(C)(C)C)(C(=O)O)C[C@@H]1O (some centres unmarked)"
value_reported = 6.1

[[record]]
compound = "CC(=O)N[C@H]1[C@H]([C@H](O)[C@H](O)CNC(=O)c2ccc(-c3ncn[nH]3)cc2)O[C@@](CCN2CCOC[C@@]23CCN(C(=O)OC(C)(C)C)C3)(C(=O)O)C[C@@H]1O"
value_reported = 6.4

[[record]]
compound = "CC(=O)N[C@H]1[C@H]([C@H](O)[C@H](O)CNC(=O)c2cc(C)c(O)c(C)c2)O[C@@](CCN2CCOC[C@@]23CCN(C(=O)NC2CCC(F)(F)CC2)C3)(C(=O)O)C[C@@H]1O"
value_reported = 10.8

[[record]]
compound = "CC(=O)N[C@H]1[C@H]([C@H](O)[C@H](O)CNC(=O)c2cc(C)c(O)c(C)c2)O[C@@](CCN2CCOC[C@@]23CCN(C(=O)N(C)c2ccccc2)C3)(C(=O)O)C[C@@H]1O"
value_reported = 9.3

[[record]]
compound = "CC(=O)N[C@H]1[C@H]([C@H](O)[C@H](O)CNC(=O)c2ccc(=O)[nH]c2)O[C@@](CCN2CCOC[C@@]23CCN(C(=O)OC(C)(C)C)C3)(C(=O)O)C[C@@H]1O"
value_reported = 3.6

[[record]]
compound = "CC(=O)N[C@H]1[C@H]([C@H](O)[C@H](O)CNC(=O)c2cccc(C)c2)O[C@@](CCN2CCOC[C@@]23CCN(C(=O)OC(C)(C)C)C3)(C(=O)O)C[C@@H]1O"
value_reported = 10.9

[[record]]
compound = "CC(=O)N[C@H]1[C@H]([C@H](O)[C@H](O)CNC(=O)c2cnc3[nH]ncc3c2)O[C@@](CCN2CCOC[C@@]23CCN(C(=O)OC(C)(C)C)C3)(C(=O)O)C[C@@H]1O"
value_reported = 11.2

